test system: KRAS PDC multicell spheroid viability; assay: Anticancer human tumor 825966-067-R-J1-PDC patient-derived colon carcinoma cell line growth inhibition [KRAS2]; conditions: second compound 10 µM; first compound 0.01 µM; active compounds read low
parameter-measured: viability, T/C (%)
Give the number; % is assumed, so skip it.

For the molecule CC(C)n1nc(-c2ccc3oc(N)nc3c2)c2c(N)ncnc21 + CC1OCC2(CCN(c3cnc(Sc4ccnc(N)c4Cl)c(N)n3)CC2)C1N , what viability, T/C is on record?
30.8

Field request: viability, T/C | item: CC(=O)OC12COC1CC(O)C1(C)C(=O)C(O)C3=C(C)C(OC(=O)C(O)C(NC(=O)OC(C)(C)C)c4ccccc4)CC(O)(C(OC(=O)c4ccccc4)C21)C3(C)C (stereo unspecified) + CC1OCC2(CCN(c3cnc(Sc4ccnc(N)c4Cl)c(N)n3)CC2)C1N
7.08

Reported viability, T/C for CC(C)n1nc(-c2ccc3oc(N)nc3c2)c2c(N)ncnc21 + CNCc1ccccc1-c1csc(C(C)Nc2nc(C)nc3cc(OC)c(OC)cc23)c1 : what is it?
0.23

Consider the molecule CC(=O)Nc1cccc(-n2c(=O)n(C3CC3)c(=O)c3c(Nc4ccc(I)cc4F)n(C)c(=O)c(C)c32)c1 + COc1cc2nc(C)nc(NC(C)c3cc(N)cc(C(F)(F)F)c3)c2cc1OC1CCOC1 and give its measured viability, T/C.
0.39

May I ask what viability, T/C has been recorded for CC1COCCN1c1cc(-c2ccnn2C)c2ccnc(-c3ccn[nH]3)c2n1 (stereo unspecified) + CC1OCC2(CCN(c3cnc(Sc4ccnc(N)c4Cl)c(N)n3)CC2)C1N ?
68.1

What does the data say about its viability, T/C? Entry: CN(C)C/C=C/C(=O)Nc1cc2c(Nc3ccc(F)c(Cl)c3)ncnc2cc1O[C@H]1CCOC1 + CNCc1ccccc1-c1csc(C(C)Nc2nc(C)nc3cc(OC)c(OC)cc23)c1
1.89

###

test system: KRAS PDC multicell spheroid viability; test: Anticancer human tumor 825966-067-R-J1-PDC cell line growth inhibition [KRAS2]; details: second compound 1 µM; first compound 0.1 µM; active compounds read low;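 note: spheroids exposed to compounds for 7 days; 100% = DMSO vehicle control viability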
parameter-measured: viability, T/C

Any idea what viability, T/C came out for O=C(c1cc(Cc2n[nH]c(=O)c3ccccc23)ccc1F)N1CCN(C(=O)C2CC2)CC1 + C=CC(=O)N1CCN(c2nc(OCC3CCCN3C)nc3c2CCN(c2cccc4cccc(C)c24)C3)CC1CC#N on KRAS PDC multicell spheroid viability?
94.8%

# get_value(readout= viability, T/C, system= KRAS PDC multicell spheroid viability) for CCN1CCN(Cc2ccc(Nc3ncc(F)c(-c4cc(F)c5nc(C)n(C(C)C)c5c4)n3)nc2)CC1 + CNCc1ccccc1-c1csc(C(C)Nc2nc(C)nc3cc(OC)c(OC)cc23)c1
173%

Short answer please: viability, T/C, KRAS PDC multicell spheroid viability, entry CC1OCC2(CCN(c3cnc(Sc4ccnc(N)c4Cl)c(N)n3)CC2)C1N (stereo not given) + CNCc1ccccc1-c1csc(C(C)Nc2nc(C)nc3cc(OC)c(OC)cc23)c1
99.9%

Lab request: please report viability, T/C under test system KRAS PDC multicell spheroid viability for Cn1ncnc1[C@H]1c2n[nH]c(=O)c3cc(F)cc(c23)N[C@@H]1c1ccc(F)cc1 + CC1OCC2(CCN(c3cnc(Sc4ccnc(N)c4Cl)c(N)n3)CC2)C1N
79.6%

Identify the measured viability, T/C of COc1cc(Nc2ncc3c(n2)-c2ccc(Cl)cc2C(c2c(F)cccc2OC)=NC3)ccc1C(=O)O + CC1OCC2(CCN(c3cnc(Sc4ccnc(N)c4Cl)c(N)n3)CC2)C1N for KRAS PDC multicell spheroid viability.
145%

Fill in the recorded viability, T/C for this molecule, with KRAS PDC multicell spheroid viability as test system: Cn1ncnc1[C@H]1c2n[nH]c(=O)c3cc(F)cc(c23)N[C@@H]1c1ccc(F)cc1 + CNCc1ccccc1-c1csc(C(C)Nc2nc(C)nc3cc(OC)c(OC)cc23)c1
86%

For the record CC(C)NCC(C(=O)N1CCN(c2ncnc3c2C(C)CC3O)CC1)c1ccc(Cl)cc1 (stereo not given) + COc1cc2nc(C)nc(NC(C)c3cc(N)cc(C(F)(F)F)c3)c2cc1OC1CCOC1 , what value of viability, T/C is listed for KRAS PDC multicell spheroid viability?
128%

Kindly state the measured viability, T/C obtained for CC(=O)OC12COC1CC(O)C1(C)C(=O)C(O)C3=C(C)C(OC(=O)C(O)C(NC(=O)OC(C)(C)C)c4ccccc4)CC(O)(C(OC(=O)c4ccccc4)C21)C3(C)C (stereo not given) + COc1cc2nc(C)nc(NC(C)c3cc(N)cc(C(F)(F)F)c3)c2cc1OC1CCOC1 with KRAS PDC multicell spheroid viability.
27.6%

What is its viability, T/C for KRAS PDC multicell spheroid viability? Entry: CC1OCC2(CCN(c3cnc(Sc4ccnc(N)c4Cl)c(N)n3)CC2)C1N (stereo not given) + C=CC(=O)N1CCN(c2nc(=O)n(-c3c(C)ccnc3C(C)C)c3nc(-c4c(O)cccc4F)c(F)cc23)C(C)C1
69.3%

Query for KRAS PDC multicell spheroid viability: what viability, T/C does the record show for CC(C)NCC(C(=O)N1CCN(c2ncnc3c2C(C)CC3O)CC1)c1ccc(Cl)cc1 (stereo not given) + CNCc1ccccc1-c1csc(C(C)Nc2nc(C)nc3cc(OC)c(OC)cc23)c1 ?
84.8%

Which measured viability, T/C belongs to CC1(C)CCC(CN2CCN(c3ccc(C(=O)NS(=O)(=O)c4ccc(NCC5CCOCC5)c([N+](=O)[O-])c4)c(Oc4cnc5[nH]ccc5c4)c3)CC2)=C(c2ccc(Cl)cc2)C1 + COc1cc2nc(C)nc(NC(C)c3cc(N)cc(C(F)(F)F)c3)c2cc1OC1CCOC1 , tested on KRAS PDC multicell spheroid viability?
96%

Give KRAS PDC multicell spheroid viability viability, T/C for CC1COCCN1c1cc(-c2ccnn2C)c2ccnc(-c3ccn[nH]3)c2n1 (stereo not given) + CC1OCC2(CCN(c3cnc(Sc4ccnc(N)c4Cl)c(N)n3)CC2)C1N
57.4%

Lookup: viability, T/C / KRAS PDC multicell spheroid viability / Cn1nccc1Nc1nccc(-c2cc3c(s2)C(C)(C)N(CCN2CCOCC2)C3=O)n1 + COc1cc2nc(C)nc(NC(C)c3cc(N)cc(C(F)(F)F)c3)c2cc1OC1CCOC1
117%

// fetch KRAS PDC multicell spheroid viability viability, T/C for CC(C)NCC(C(=O)N1CCN(c2ncnc3c2C(C)CC3O)CC1)c1ccc(Cl)cc1 (stereo not given) + C=CC(=O)N1CCN(c2nc(=O)n(-c3c(C)ccnc3C(C)C)c3nc(-c4c(O)cccc4F)c(F)cc23)C(C)C1
121%

Notebook: pull reported viability, T/C for KRAS PDC multicell spheroid viability, entry Cn1ncnc1[C@H]1c2n[nH]c(=O)c3cc(F)cc(c23)N[C@@H]1c1ccc(F)cc1 + C=CC(=O)N1CCN(c2nc(=O)n(-c3c(C)ccnc3C(C)C)c3nc(-c4c(O)cccc4F)c(F)cc23)C(C)C1
80.6%

API: value(readout= viability, T/C, system= KRAS PDC multicell spheroid viability, query= COc1cc2nccc(Oc3ccc(NC(=O)C4(C(=O)Nc5ccc(F)cc5)CC4)cc3)c2cc1OC + COc1cc2nc(C)nc(NC(C)c3cc(N)cc(C(F)(F)F)c3)c2cc1OC1CCOC1 )
98.6%

What viability, T/C appears in the records for this molecule with KRAS PDC multicell spheroid viability? CC(=O)OC12COC1CC(O)C1(C)C(=O)C(O)C3=C(C)C(OC(=O)C(O)C(NC(=O)OC(C)(C)C)c4ccccc4)CC(O)(C(OC(=O)c4ccccc4)C21)C3(C)C (stereo not given) + CNCc1ccccc1-c1csc(C(C)Nc2nc(C)nc3cc(OC)c(OC)cc23)c1
11.6%

Recall the recorded viability, T/C for COc1cc(Nc2ncc3c(n2)-c2ccc(Cl)cc2C(c2c(F)cccc2OC)=NC3)ccc1C(=O)O + C=CC(=O)N1CCN(c2nc(=O)n(-c3c(C)ccnc3C(C)C)c3nc(-c4c(O)cccc4F)c(F)cc23)C(C)C1 with KRAS PDC multicell spheroid viability and state it.
107%

Form: Entry = COC(=O)c1ccc2c(C(=Nc3ccc(N(C)C(=O)CN4CCN(C)CC4)cc3)c3ccccc3)c(O)[nH]c2c1 + C=CC(=O)N1CCN(c2nc(OCC3CCCN3C)nc3c2CCN(c2cccc4cccc(C)c24)C3)CC1CC#N | System = KRAS PDC multicell spheroid viability | viability, T/C = ____
87.2%

Form field: viability, T/C recorded for COC(=O)c1ccc2c(C(=Nc3ccc(N(C)C(=O)CN4CCN(C)CC4)cc3)c3ccccc3)c(O)[nH]c2c1 + CNCc1ccccc1-c1csc(C(C)Nc2nc(C)nc3cc(OC)c(OC)cc23)c1 with KRAS PDC multicell spheroid viability (enter value)
78.2%
